Origin of the recorded values: patent US20240400564A1

# tested on: hERG (Homo sapiens)
# Sequence (Q12809 whole entry): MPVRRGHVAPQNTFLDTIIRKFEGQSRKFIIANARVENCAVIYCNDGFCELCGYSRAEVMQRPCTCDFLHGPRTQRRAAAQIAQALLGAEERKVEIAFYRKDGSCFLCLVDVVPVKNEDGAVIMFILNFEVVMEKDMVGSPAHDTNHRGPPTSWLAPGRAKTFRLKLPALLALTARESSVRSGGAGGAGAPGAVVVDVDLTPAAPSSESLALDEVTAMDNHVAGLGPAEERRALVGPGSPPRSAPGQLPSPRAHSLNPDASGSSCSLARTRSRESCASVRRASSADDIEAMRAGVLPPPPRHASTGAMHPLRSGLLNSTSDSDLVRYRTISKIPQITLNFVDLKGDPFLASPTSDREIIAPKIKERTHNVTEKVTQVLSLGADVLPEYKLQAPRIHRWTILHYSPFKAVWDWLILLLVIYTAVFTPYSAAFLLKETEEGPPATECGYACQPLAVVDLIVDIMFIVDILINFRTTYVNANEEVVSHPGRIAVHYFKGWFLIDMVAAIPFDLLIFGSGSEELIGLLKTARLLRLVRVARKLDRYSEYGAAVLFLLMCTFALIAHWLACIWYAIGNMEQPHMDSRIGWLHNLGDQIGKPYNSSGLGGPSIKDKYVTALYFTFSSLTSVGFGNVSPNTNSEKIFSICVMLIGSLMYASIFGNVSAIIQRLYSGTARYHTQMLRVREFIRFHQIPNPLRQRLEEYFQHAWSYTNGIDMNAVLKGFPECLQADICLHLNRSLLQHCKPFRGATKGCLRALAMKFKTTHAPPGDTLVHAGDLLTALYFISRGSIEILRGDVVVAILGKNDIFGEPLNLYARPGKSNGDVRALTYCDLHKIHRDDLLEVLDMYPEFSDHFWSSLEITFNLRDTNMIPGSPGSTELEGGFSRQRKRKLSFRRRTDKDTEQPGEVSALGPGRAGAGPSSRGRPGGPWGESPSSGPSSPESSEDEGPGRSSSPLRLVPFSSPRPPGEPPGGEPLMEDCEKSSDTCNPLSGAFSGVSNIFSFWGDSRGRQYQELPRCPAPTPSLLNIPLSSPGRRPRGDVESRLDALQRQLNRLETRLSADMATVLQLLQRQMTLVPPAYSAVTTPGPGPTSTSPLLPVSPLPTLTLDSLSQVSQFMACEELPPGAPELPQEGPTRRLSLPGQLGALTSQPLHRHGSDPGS
# method notes: Patch clamp assay (hERG tail currents, whole-cell)
# assay setup: 30 μM compound
measure name: hERG % Remaining

CC(C)N(C(=O)c1cc(F)ccc1Oc1cncnc1N1CC2(CCN(C[C@@H]3CC[C@@H](NS(=O)(=O)N(C)C(C)C)CO3)CC2)C1)C(C)C; ++ (233% and ≤66%)
CCN(C(=O)c1cc(F)ccc1Oc1cncnc1N1CC2(CCN(C[C@@H]3CC[C@@H](NS(=O)(=O)c4c[nH]c(=O)c(C)c4)CO3)CC2)C1)C(C)C; + (<33%)
CCN(C(=O)c1cc(F)ccc1Oc1cncnc1N1CC2(CCN(C[C@@H]3CC[C@@H](NS(=O)(=O)N4CCC4)CO3)CC2)C1)C(C)C; ++ (233% and ≤66%)
CC(C)N(C(=O)c1cc(F)ccc1Oc1cncnc1N1CC2(CCN(C[C@@H]3CC[C@@H](NS(=O)(=O)C4CC4)CO3)CC2)C1)C1CC1; + (<33%)

Read the next record carefully.
[Q] # get_value(readout= hERG % Remaining, system= hERG (Homo sapiens)) for CC(C)N(CC(F)F)C(=O)c1cc(F)ccc1Oc1cncnc1N1CC2(CCN(C[C@@H]3CC[C@@H](NS(=O)(=O)N4CCOCC4)CO3)CC2)C1
[A] ++ (233% and ≤66%)
